System: ACHN
procedure_details: NCI-60 five-dose SRB assay
Assay type: cell-based
study_conditions: Homo sapiens, Renal cancer, five-dose test
Parameter: GI50. Scope: all listed entries.
Could you give me the number in µM? Just the number is fine.

| compound | assay_system | endpoint_unit | GI50 |
| --- | --- | --- | --- |
| CN1CCCN(Cc2ccc(C(=O)Nc3cccc(Nc4ccc5c(O)cccc5n4)c3)cc2C(F)(F)F)CC1 [Compound 17b] | ACHN | µM | 1.92 |
| CCN1CCN(Cc2ccc(C(=O)Nc3cccc(Nc4ccc5c(OC)cccc5n4)c3)cc2C(F)(F)F)CC1 [Compound 14c] | ACHN | µM | 1.85 |
| COc1cccc2nc(Nc3ccc(F)c(NC(=O)c4ccc(CN5CCN(C)CC5)c(C(F)(F)F)c4)c3)ccc12 [Compound 15a] | ACHN | µM | 16.5 |

With those in mind, consider the next compound.
Measured GI50, CN1CCN(Cc2ccc(C(=O)Nc3cccc(Nc4ccc5c(O)cccc5n4)c3)cc2C(F)(F)F)CC1 [Compound 17a] : 2.07

====

assay_system: B-RAF^V600E (Homo sapiens, UniProt P15056, V600E)
Construct: purchased Reaction Biology Corporation (RBC), Kinase HotSpot service
Sequence (P15056 whole entry V600E): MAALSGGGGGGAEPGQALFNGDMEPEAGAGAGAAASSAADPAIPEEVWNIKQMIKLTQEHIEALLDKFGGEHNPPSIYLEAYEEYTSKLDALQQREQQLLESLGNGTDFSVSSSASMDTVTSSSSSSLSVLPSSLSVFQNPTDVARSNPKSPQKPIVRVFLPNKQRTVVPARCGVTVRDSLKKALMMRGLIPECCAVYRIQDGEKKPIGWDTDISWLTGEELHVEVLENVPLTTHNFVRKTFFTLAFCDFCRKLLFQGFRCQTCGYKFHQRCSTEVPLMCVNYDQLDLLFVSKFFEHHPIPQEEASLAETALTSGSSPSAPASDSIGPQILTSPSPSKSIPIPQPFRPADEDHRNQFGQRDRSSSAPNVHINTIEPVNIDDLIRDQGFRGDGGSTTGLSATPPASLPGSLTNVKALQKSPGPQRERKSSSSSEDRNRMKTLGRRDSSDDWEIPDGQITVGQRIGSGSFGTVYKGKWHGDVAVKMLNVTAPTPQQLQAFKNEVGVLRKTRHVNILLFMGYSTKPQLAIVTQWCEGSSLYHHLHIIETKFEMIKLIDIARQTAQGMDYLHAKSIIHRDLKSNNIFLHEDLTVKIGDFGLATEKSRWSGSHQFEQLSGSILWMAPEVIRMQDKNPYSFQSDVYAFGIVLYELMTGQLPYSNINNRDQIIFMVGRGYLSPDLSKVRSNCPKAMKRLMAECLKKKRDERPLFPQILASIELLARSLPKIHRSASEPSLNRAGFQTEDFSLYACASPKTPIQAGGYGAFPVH
procedure_details: HotSpot kinase assay (RBC), B-RAF^V600E
Type: biochemical
study_conditions: 1 µM ATP
observed_property: pIC50
pIC50 here: minus log base 10 of the concentration, concentration in moles per litre.

// sample CN1CCN(Cc2ccc(C(=O)Nc3cccc(Nc4ccc5cc(O)ccc5n4)c3)cc2C(F)(F)F)CC1 [Compound 18a] , its pIC50 was 7.07

====

assay_system: C-RAF (Homo sapiens)
Sequence (P04049 whole entry): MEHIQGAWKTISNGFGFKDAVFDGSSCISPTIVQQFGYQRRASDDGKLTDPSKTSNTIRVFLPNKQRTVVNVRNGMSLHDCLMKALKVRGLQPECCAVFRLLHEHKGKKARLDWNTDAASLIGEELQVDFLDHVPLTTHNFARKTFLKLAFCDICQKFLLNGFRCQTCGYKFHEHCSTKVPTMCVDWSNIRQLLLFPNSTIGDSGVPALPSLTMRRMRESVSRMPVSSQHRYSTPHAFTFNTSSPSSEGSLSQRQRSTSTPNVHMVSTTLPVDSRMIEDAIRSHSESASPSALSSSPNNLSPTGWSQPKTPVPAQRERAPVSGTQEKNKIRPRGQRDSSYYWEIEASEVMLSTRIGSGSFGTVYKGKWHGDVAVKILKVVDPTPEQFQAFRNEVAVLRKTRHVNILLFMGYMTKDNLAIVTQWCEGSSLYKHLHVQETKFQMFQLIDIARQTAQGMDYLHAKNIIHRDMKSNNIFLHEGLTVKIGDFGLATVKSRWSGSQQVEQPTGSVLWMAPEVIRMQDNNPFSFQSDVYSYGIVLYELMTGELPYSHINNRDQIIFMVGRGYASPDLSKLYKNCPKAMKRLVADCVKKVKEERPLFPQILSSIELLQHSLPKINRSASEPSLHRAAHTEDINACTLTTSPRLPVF
procedure_details: HotSpot kinase assay (RBC), C-RAF
study_conditions: IC50 C-RAF, 1 µM ATP
observed_property: IC50 (nM)
Write the value in nM as a bare number.

The compound CN1CCN(Cc2ccc(C(=O)Nc3cccc(Nc4ccc5cc(O)ccc5n4)c3)cc2C(F)(F)F)CC1 [Compound 18a] , tested on C-RAF (Homo sapiens), showed IC50 of 29.3

====

System: NCI-H23
procedure_details: NCI-60 five-dose SRB assay
Type: cell-based
study_conditions: Homo sapiens; NCI-H23, NSCL cancer, five-dose test
Consider the following compounds and their measured GI50 readings.
Quick note: give the figure in µM, leave out the unit.

| compound | GI50 [µM] |
| --- | --- |
| COc1cccc2nc(Nc3ccc(F)c(NC(=O)c4ccc(CN5CCN(C)CC5)c(C(F)(F)F)c4)c3)ccc12 [Compound 15a] | 15.5 |
| CN1CCN(Cc2ccc(C(=O)Nc3cccc(Nc4ccc5cc(O)ccc5n4)c3)cc2C(F)(F)F)CC1 [Compound 18a] | 13.9 |
| CN1CCCN(Cc2ccc(C(=O)Nc3cccc(Nc4ccc5c(O)cccc5n4)c3)cc2C(F)(F)F)CC1 [Compound 17b] | 1.78 |

Here is the next item to consider.
Value of measured GI50 for the entry CN1CCCN(Cc2ccc(C(=O)Nc3cccc(Nc4ccc5cc(O)ccc5n4)c3)cc2C(F)(F)F)CC1 [Compound 18b] : 16.8

====

log10 of GI50 by entry:
Test system: SK-MEL-5
procedure_details: NCI-60 five-dose SRB assay
Assay type: cell-based
study_conditions: Homo sapiens; SK-MEL-5, Melanoma, five-dose test
Experimental: The anticancer screening of target compounds over a full panel of 60 human cancer cell lines was carried out using Sulforhodamine B (SRB) assay at the National Cancer Institute (NCI), Bethesda, Maryland, USA, employing the standard protocol.
In our notation, the value equals log10 of GI50 in µM.

Looking up COc1cccc2nc(Nc3cccc(NC(=O)c4ccc(CN5CCCN(C)CC5)c(C(F)(F)F)c4)c3)ccc12 [Compound 14b] , I see its log10 of GI50 listed as 0.23

Data point: CN1CCCN(Cc2ccc(C(=O)Nc3cccc(Nc4ccc5c(O)cccc5n4)c3)cc2C(F)(F)F)CC1 [Compound 17b] ; log10 of GI50 = 0.24

# compound COc1ccc2nc(Nc3cccc(NC(=O)c4ccc(CN5CCN(C)CC5)c(C(F)(F)F)c4)c3)ccc2c1 [Compound 16a] ; its log10 of GI50 = 0.71

So, CN1CCN(Cc2ccc(C(=O)Nc3cccc(Nc4ccc5c(O)cccc5n4)c3)cc2C(F)(F)F)CC1 [Compound 17a] ? Its log10 of GI50 was 0.23

Entry CCN1CCN(Cc2ccc(C(=O)Nc3cccc(Nc4ccc5c(OC)cccc5n4)c3)cc2C(F)(F)F)CC1 [Compound 14c] ; log10 of GI50 = 0.16

For CN1CCCN(Cc2ccc(C(=O)Nc3cccc(Nc4ccc5cc(O)ccc5n4)c3)cc2C(F)(F)F)CC1 [Compound 18b] the compound record lists log10 of GI50 as 1.21

response.value for CN1CCN(Cc2ccc(C(=O)Nc3cccc(Nc4ccc5cc(O)ccc5n4)c3)cc2C(F)(F)F)CC1 [Compound 18a] (field: log10 of GI50) = 0.37

Measured log10 of GI50 of COc1cccc2nc(Nc3ccc(F)c(NC(=O)c4ccc(CN5CCN(C)CC5)c(C(F)(F)F)c4)c3)ccc12 [Compound 15a] : 1.19

get_value(item= COc1cccc2nc(Nc3cccc(NC(=O)c4ccc(CN5CCN(C)CC5)c(C(F)(F)F)c4)c3)ccc12 [Compound 14a] , readout=log10 of GI50) returns 0.21

====

Tested on: OVCAR-4
procedure_details: NCI-60 five-dose SRB assay
Assay type: cell-based
study_conditions: Homo sapiens; OVCAR-4, Ovarian cancer, five-dose test
observed_property: GI50
In your response, put the unit directly after the numeric value.

Answered cases to consult:
| molecule | GI50 |
| --- | --- |
| COc1cccc2nc(Nc3ccc(F)c(NC(=O)c4ccc(CN5CCN(C)CC5)c(C(F)(F)F)c4)c3)ccc12 [Compound 15a] | 13.9 µM |
| CN1CCN(Cc2ccc(C(=O)Nc3cccc(Nc4ccc5c(O)cccc5n4)c3)cc2C(F)(F)F)CC1 [Compound 17a] | 7.39 µM |
| COc1cccc2nc(Nc3cccc(NC(=O)c4ccc(CN5CCN(C)CC5)c(C(F)(F)F)c4)c3)ccc12 [Compound 14a] | 2.21 µM |
| CN1CCCN(Cc2ccc(C(=O)Nc3cccc(Nc4ccc5cc(O)ccc5n4)c3)cc2C(F)(F)F)CC1 [Compound 18b] | 15 µM |
| CN1CCCN(Cc2ccc(C(=O)Nc3cccc(Nc4ccc5c(O)cccc5n4)c3)cc2C(F)(F)F)CC1 [Compound 17b] | 3.83 µM |

response.value for CN1CCN(Cc2ccc(C(=O)Nc3cccc(Nc4ccc5cc(O)ccc5n4)c3)cc2C(F)(F)F)CC1 [Compound 18a] (field: GI50) = 11.2 µM

According to the records, this molecule COc1ccc2nc(Nc3cccc(NC(=O)c4ccc(CN5CCN(C)CC5)c(C(F)(F)F)c4)c3)ccc2c1 [Compound 16a] displays GI50 of 4.32 µM

Memo: CCN1CCN(Cc2ccc(C(=O)Nc3cccc(Nc4ccc5c(OC)cccc5n4)c3)cc2C(F)(F)F)CC1 [Compound 14c] , reported GI50: 2.89 µM

Recorded result, COc1cccc2nc(Nc3cccc(NC(=O)c4ccc(CN5CCCN(C)CC5)c(C(F)(F)F)c4)c3)ccc12 [Compound 14b] , GI50: 2.67 µM

====

System: SF-268
procedure_details: NCI-60 five-dose SRB assay
Format: cell-based
study_conditions: Homo sapiens; SF-268, CNS cancer, five-dose test
observed_property: GI50 (nM)
Respond numerically; units are nM and should not be typed.

Worked cases, GI50 given:
| compound | endpoint_unit | GI50 |
| --- | --- | --- |
| CN1CCCN(Cc2ccc(C(=O)Nc3cccc(Nc4ccc5cc(O)ccc5n4)c3)cc2C(F)(F)F)CC1 [Compound 18b] | nM | 17300 |
| CN1CCN(Cc2ccc(C(=O)Nc3cccc(Nc4ccc5c(O)cccc5n4)c3)cc2C(F)(F)F)CC1 [Compound 17a] | nM | 3810 |
| CN1CCCN(Cc2ccc(C(=O)Nc3cccc(Nc4ccc5c(O)cccc5n4)c3)cc2C(F)(F)F)CC1 [Compound 17b] | nM | 2140 |

Consider the record given below.
// field: GI50; key: COc1cccc2nc(Nc3cccc(NC(=O)c4ccc(CN5CCCN(C)CC5)c(C(F)(F)F)c4)c3)ccc12 [Compound 14b] ; value = 1770

====

assay_system: B-RAF^V600E (Homo sapiens, UniProt P15056, V600E)
Construct: purchased Reaction Biology Corporation (RBC), Kinase HotSpot service
procedure_details: HotSpot kinase assay (RBC), B-RAF^V600E
Format: biochemical
study_conditions: 10 µM ATP, 10-dose singlicate IC50 mode
Quick list: pIC50 per entry.
Remember the convention: pIC50 equals -log10 of concentration in molar.

| compound | assay_system | pIC50 |
| --- | --- | --- |
| COc1ccc2nc(Nc3cccc(NC(=O)c4ccc(CN5CCCN(C)CC5)c(C(F)(F)F)c4)c3)ccc2c1 [Compound 16b] | B-RAF^V600E (Homo sapiens, UniProt P15056, V600E) | 6.51 |
| COc1ccc2nc(Nc3cccc(NC(=O)c4ccc(CN5CCN(C)CC5)c(C(F)(F)F)c4)c3)ccc2c1 [Compound 16a] | B-RAF^V600E (Homo sapiens, UniProt P15056, V600E) | 6.71 |
| COc1cccc2nc(Nc3cccc(NC(=O)c4ccc(CN5CCN(C)CC5)c(C(F)(F)F)c4)c3)ccc12 [Compound 14a] | B-RAF^V600E (Homo sapiens, UniProt P15056, V600E) | 6.30 |

The recorded pIC50 for CN1CCN(Cc2ccc(C(=O)Nc3cccc(Nc4ccc5cc(O)ccc5n4)c3)cc2C(F)(F)F)CC1 [Compound 18a] is 6.94

The recorded pIC50 for CN1CCCN(Cc2ccc(C(=O)Nc3cccc(Nc4ccc5c(O)cccc5n4)c3)cc2C(F)(F)F)CC1 [Compound 17b] is 6.89

Consider CCN1CCN(Cc2ccc(C(=O)Nc3cccc(Nc4ccc5c(OC)cccc5n4)c3)cc2C(F)(F)F)CC1 [Compound 14c] . Its measured pIC50 is 6.21

Lookup result for CN1CCN(Cc2ccc(C(=O)Nc3cccc(Nc4ccc5c(O)cccc5n4)c3)cc2C(F)(F)F)CC1 [Compound 17a] ; measured pIC50: 6.86
